Numbers sourced from ChEMBL document CHEMBL5143717.

Recorded AUC(0-t) values for a group of compounds are listed next.
Test: AUClast in rat at 2 mg/kg, po
Type: ADME, organism-based
Set-up: time 0 - last, dose 2 mg/kg, route po
Settings: in vivo
recorded.endpoint: AUC(0-t) (µM·h)

1) COc1cc(OCc2cccc(-c3cnc(OC)cn3)c2)c2cc(-c3cn4nc(OC)sc4n3)oc2c1 :: 1.4
2) COc1cc(OCc2cccc(-c3ccc(C#N)cn3)c2)c2cc(-c3cn4nc(OC)sc4n3)oc2c1 :: 0.91
3) COc1cc(OCc2csc(N3CCOCC3)n2)c2cc(-c3cn4nc(OC)sc4n3)oc2c1 :: 16.2
4) CNC(=O)c1ccc(-c2nc(COc3cc(OC)cc4oc(-c5cn6nc(OC)sc6n5)cc34)cs2)cc1 :: 0.04
5) COc1cc(OCc2csc(N3CCCCC3)n2)c2cc(-c3cn4nc(OC)sc4n3)oc2c1 :: 21.6

====

Listing: concentration at 24 h of selected compounds
Experiment: Drug concentration in rat at 2 mg/kg, po measured after 24 hrs
Assay type: ADME, organism-based
Conditions: in vivo, read-out: Drug uptake
recorded.endpoint: concentration at 24 h (nM)

1. COc1cc(OCc2ccccc2)c2cc(-c3cn4nc(OC)sc4n3)oc2c1 :: 46
2. COc1cc(OCc2csc(N3CCCCC3)n2)c2cc(-c3cn4nc(OC)sc4n3)oc2c1 :: 340
3. COc1cc(OCc2csc(N3CCCOCC3)n2)c2cc(-c3cn4nc(OC)sc4n3)oc2c1 :: 49
4. COc1cc(OCc2cccc(OCc3ccccc3)c2)c2cc(-c3cn4nc(OC)sc4n3)oc2c1 :: 3
5. COc1cc(OCc2cccc(-c3ccc(OC)nc3)c2)c2cc(-c3cn4nc(OC)sc4n3)oc2c1 :: 19
6. COc1cc(OCc2csc(-c3ccc(C(=O)N4CCC(F)(F)C4)cc3)n2)c2cc(-c3cn4nc(OC)sc4n3)oc2c1 :: 1.8
7. COc1ccc(-c2cccc(COc3cc(OC)cc4oc(-c5cn6nc(OC)sc6n5)cc34)c2)nc1 :: 22
8. COc1cc(OCc2csc(C3CCC(F)(F)CC3)n2)c2cc(-c3cn4nc(OC)sc4n3)oc2c1 :: 21
9. COc1cc(OCc2csc(-c3ccccc3)n2)c2cc(-c3cn4nc(OC)sc4n3)oc2c1 :: 89
10. COc1cc(OCc2ccnc(-c3ccccc3)n2)c2cc(-c3cn4nc(OC)sc4n3)oc2c1 :: 94
11. COc1cc(OCc2coc(N3CCOCC3)n2)c2cc(-c3cn4nc(OC)sc4n3)oc2c1 :: 69
12. COc1cc(OCc2csc(-c3ccc(C(=O)N4CCCC4)cc3)n2)c2cc(-c3cn4nc(OC)sc4n3)oc2c1 :: 4.7
